# Method description: in vitro
# Reported conditions: mouse, plasma
Assay metric: fraction unbound at 5 h
Just the number, please, no unit after it.

Example results:
Compound	fraction unbound at 5 h
CN(C)CCC1CCN(c2cc(C(=O)NC[C@H]3CC[C@H](CNC(=O)OC(C)(C)C)CC3)c3ccccc3n2)CC1	0.0079
COc1ccc(C2(c3ccc(F)c(-c4cccnc4F)c3)N=C(N)N(C)C2=O)cc1C (stereo not given)	0.0081
Cc1ccc(-c2ccc3c(ccc4sc5c(c43)NC[C@@H](C)NC5=O)n2)cn1	0.0229

QUERY: Read the entry O=P(c1ccccc1)(c1ccccc1)N(Cc1ccccn1)c1cccnc1 and write its reported fraction unbound at 5 h.
RESULT: 0.17

QUERY: Read the entry C[C@H](Nc1ncc(Cl)c(Nc2cc(C3CC3)[nH]n2)n1)c1ccc(F)cn1 and write its reported fraction unbound at 5 h.
RESULT: 0.0358

QUERY: Read the entry Cc1nccn1-c1sc(Nc2cnccn2)nc1-c1cccc(C#N)c1 and write its reported fraction unbound at 5 h.
RESULT: 0.0335

QUERY: Read the entry C[C@H](c1ccc(F)cc1CCCC(=O)O)N(c1cc(F)ccc1F)S(=O)(=O)c1ccc(Cl)cc1 and write its reported fraction unbound at 5 h.
RESULT: 0.005

Values were extracted from ChEMBL document CHEMBL3301361.
